molecular target: PCAF (Homo sapiens); construct: 100 ng of recombinant HAT domains of p300, PCAF, or CBP; assay: In vitro acetylation assay of Ku70 peptides with PCAF HAT domain and 3H-acetyl-CoA; assay type: biochemical; settings: HAT domain of PCAF, 3H-acetyl-CoA, autoradiography

{"SUBSTANCE": "ASKAMFESQSEDELT [Peptide 3, Ku70 peptide, amino acids 44-58]", "acetylation of peptide by PCAF in vitro": "acetylated by PCAF"}
{"SUBSTANCE": "VQFKMSHKRIMLFTNED [Peptide 8, Ku70 peptide, amino acids 157-173]", "acetylation of peptide by PCAF in vitro": "acetylated by PCAF"}

----------
biological target: PCAF (Homo sapiens, UniProt Q92831); construct: 100 ng of recombinant HAT domains of p300, PCAF, or CBP; test: In vitro acetylation assay of Ku70 peptides with PCAF HAT domain and 3H-acetyl-CoA; type: biochemical; design: key: +: Band intensity was measured using NIH ImageJ software and normalized to the intensity of peptide 3.; ++: Band intensity was measured using NIH ImageJ software and normalized to the intensity of peptide 3.; +++: Band intensity was measured using NIH ImageJ software and normalized to the intensity of peptide 3.; +++++: Band intensity was measured using NIH ImageJ software and normalized to the intensity of peptide 3; settings: Ku70 peptides acetylated by PCAF in vitro; band intensity normalized to peptide 3
Sequence (Q92831 503-651 limits assumed): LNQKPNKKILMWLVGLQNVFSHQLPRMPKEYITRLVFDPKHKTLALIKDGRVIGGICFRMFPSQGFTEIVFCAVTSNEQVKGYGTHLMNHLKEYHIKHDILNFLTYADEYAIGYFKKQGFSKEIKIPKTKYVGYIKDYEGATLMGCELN
VALUE TYPE: Relative Intensity of Acetylation

{"ORDERED RESIDUES": "ASKAMFESQSEDELT [Peptide 3, Ku70 peptide, amino acids 44-58]", "ASSAYED TARGET": "PCAF (Homo sapiens, UniProt Q92831)", "Relative Intensity of Acetylation": "+"}
{"ORDERED RESIDUES": "TKRKHDNEGSGSKRPKVEYSEE [Peptide 29, Ku70 peptide, amino acids 541-562]", "ASSAYED TARGET": "PCAF (Homo sapiens, UniProt Q92831)", "Relative Intensity of Acetylation": "+++++"}
{"ORDERED RESIDUES": "LLLPSDTKRSQIY [Peptide 15, Ku70 peptide, amino acids 310-322]", "ASSAYED TARGET": "PCAF (Homo sapiens, UniProt Q92831)", "Relative Intensity of Acetylation": "+++"}
{"ORDERED RESIDUES": "RQIILEKEETEELKRFD [Peptide 16, Ku70 peptide, amino acids 325-341]", "ASSAYED TARGET": "PCAF (Homo sapiens, UniProt Q92831)", "Relative Intensity of Acetylation": "+++"}

Consider the sequence VQFKMSHKRIMLFTNED [Peptide 8, Ku70 peptide, amino acids 157-173] and give its measured Relative Intensity of Acetylation. ++

----------
molecular target: CBP (Homo sapiens, UniProt Q92793); construct: 100 ng of recombinant HAT domains of p300, PCAF, or CBP; test: In vitro acetylation assay of Ku70 peptides with CBP HAT domain and 3H-acetyl-CoA; assay type: biochemical; conditions: autoradiography
Sequence (Q92793 1323-1700 limits assumed): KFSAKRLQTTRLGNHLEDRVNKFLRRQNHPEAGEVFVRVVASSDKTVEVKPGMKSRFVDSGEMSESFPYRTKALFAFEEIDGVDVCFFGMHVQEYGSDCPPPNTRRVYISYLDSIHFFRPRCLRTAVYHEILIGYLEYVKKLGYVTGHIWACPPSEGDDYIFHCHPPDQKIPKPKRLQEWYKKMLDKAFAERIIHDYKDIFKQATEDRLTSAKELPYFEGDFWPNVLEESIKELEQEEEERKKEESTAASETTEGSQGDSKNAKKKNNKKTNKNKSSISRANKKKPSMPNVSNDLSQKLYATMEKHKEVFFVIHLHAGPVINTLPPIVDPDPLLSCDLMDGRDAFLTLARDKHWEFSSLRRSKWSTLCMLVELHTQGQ
VALUE TYPE: acetylation of peptide by CBP in vitro

{"SUBSTANCE": "TKRKHDNEGSGSKRPKVEYSEE [Peptide 29, Ku70 peptide, amino acids 541-562]", "ASSAYED TARGET": "CBP (Homo sapiens, UniProt Q92793)", "VALUE TYPE": "acetylation of peptide by CBP in vitro", "READOUT VALUE": "strongly acetylated"}
{"SUBSTANCE": "RQIILEKEETEELKRFD [Peptide 16, Ku70 peptide, amino acids 325-341]", "ASSAYED TARGET": "CBP (Homo sapiens, UniProt Q92793)", "VALUE TYPE": "acetylation of peptide by CBP in vitro", "READOUT VALUE": "strongly acetylated"}

Sourced from patent US20060084085A1
